kon for assorted binders
TARGET OR TEST SYSTEM: T1, Human BCMA (human, UniProt Q02223 1-54, limits assumed)
T1 construct: Soluble analyte in SPR; construct not described; also called huBCMA; B-cell maturation antigen
T1 sequence (looked up): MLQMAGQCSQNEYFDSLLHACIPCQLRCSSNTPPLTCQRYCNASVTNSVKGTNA
ASSAY TEXT: SPR, IgG immobilised, 25 C
Quick reminder: number only, in M⁻¹ s⁻¹, skip the unit.

Take a look at these entries with their results.
1. L1.LGF/L3.NY/H3.AL (antibody, V domains shown, IgG) VH: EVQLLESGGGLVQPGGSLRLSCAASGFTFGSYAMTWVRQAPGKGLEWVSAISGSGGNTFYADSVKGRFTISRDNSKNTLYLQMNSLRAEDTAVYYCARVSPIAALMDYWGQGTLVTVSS VL: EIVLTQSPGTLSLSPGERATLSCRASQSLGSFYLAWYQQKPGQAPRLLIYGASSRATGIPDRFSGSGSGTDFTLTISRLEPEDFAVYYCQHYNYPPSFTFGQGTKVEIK ... 763000
2. L3.PY/P6E01 (antibody, V domains shown, IgG) VH: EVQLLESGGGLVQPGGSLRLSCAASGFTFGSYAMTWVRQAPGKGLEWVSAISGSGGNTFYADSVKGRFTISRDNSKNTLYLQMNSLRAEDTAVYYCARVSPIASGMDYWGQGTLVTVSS VL: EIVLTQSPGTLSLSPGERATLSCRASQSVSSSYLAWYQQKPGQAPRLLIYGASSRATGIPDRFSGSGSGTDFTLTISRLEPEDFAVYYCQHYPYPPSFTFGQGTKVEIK ... 712000
3. L1.GDF/L3.KW/H3.AP (antibody, V domains shown, IgG) VH: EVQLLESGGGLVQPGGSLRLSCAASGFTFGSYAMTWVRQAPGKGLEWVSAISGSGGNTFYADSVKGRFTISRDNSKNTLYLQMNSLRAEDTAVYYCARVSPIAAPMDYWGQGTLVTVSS VL: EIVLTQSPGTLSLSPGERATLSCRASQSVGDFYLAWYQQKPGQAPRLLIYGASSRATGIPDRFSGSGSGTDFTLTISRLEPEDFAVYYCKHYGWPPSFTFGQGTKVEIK ... 1.17e+06

Task: Form field: reported kon of L1.LGF/L3.NY/H3.AP (antibody, V domains shown, IgG) VH: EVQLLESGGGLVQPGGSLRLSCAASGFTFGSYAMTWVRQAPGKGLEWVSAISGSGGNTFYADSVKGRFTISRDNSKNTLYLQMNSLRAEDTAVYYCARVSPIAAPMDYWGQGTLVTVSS VL: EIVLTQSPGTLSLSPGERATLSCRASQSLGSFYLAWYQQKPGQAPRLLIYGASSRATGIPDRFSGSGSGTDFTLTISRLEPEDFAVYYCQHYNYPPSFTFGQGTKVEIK
Result: 936000

Task: What about this binder? L1.LGF/L3.NY/P6E01 (antibody, V domains shown, IgG) VH: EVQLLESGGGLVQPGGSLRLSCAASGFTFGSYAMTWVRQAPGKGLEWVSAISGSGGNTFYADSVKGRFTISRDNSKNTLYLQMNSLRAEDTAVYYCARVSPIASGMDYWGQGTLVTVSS VL: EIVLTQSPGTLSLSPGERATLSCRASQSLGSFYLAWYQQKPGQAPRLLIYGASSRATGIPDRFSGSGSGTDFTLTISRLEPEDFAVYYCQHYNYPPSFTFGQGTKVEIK
Result: 1.33e+06
